- assay target: T1, human CDH6 on cells (human, UniProt P55285 54-790)
- T1 sequence: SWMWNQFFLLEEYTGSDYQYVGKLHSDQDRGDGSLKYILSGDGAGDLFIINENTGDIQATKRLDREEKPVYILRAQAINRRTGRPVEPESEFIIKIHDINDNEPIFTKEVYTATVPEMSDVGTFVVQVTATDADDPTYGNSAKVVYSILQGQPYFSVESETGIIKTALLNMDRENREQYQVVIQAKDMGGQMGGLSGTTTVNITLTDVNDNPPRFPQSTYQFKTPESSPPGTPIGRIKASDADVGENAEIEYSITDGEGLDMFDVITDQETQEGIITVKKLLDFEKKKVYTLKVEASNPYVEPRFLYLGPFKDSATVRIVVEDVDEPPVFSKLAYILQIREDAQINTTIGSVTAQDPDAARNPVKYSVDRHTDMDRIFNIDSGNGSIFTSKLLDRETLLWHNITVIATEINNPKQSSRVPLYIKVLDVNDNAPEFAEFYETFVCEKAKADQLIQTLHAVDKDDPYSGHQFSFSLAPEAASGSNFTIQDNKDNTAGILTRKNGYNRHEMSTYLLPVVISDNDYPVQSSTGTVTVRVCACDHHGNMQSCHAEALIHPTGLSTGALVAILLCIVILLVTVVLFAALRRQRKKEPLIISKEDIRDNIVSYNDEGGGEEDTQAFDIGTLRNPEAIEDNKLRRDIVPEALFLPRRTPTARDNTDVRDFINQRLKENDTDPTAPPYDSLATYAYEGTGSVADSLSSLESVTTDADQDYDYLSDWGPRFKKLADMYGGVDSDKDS
- assay text: cell-based or functional assay
property name: percent inhibition at 1.22 nM ADC, OVCAR3 cells
A complete answer gives the number followed by the unit.

Ask: Could you tell me which percent inhibition at 1.22 nM ADC, OVCAR3 cells is on file for NOV0695-SMCC-DM1 (antibody, human IgG1, kappa, V domains shown, SMCC-DM1 on primary amines, sites not stated) VH: QVQLQQSGPGLVKPSQTLSLTCAISGDSVSSNSAAWNWIRQSPSRGLEWLGRIYYRSKWYNDYAVSVKSRITINPDTSKNQFSLQLNSVTPEDTAVYYCARERSYRDYFDYWGQGTLVTVSS VL: DIQMTQSPSSLSASVGDRVTITCRASQGIFTYLNWYQQKPGKAPKLLISAASTLQSGVPSRFSGSGSGTDFTLTISSLQPEDFATYYCQQYYSTSLTFGQGTKVEIKR ?
Reply: 89%

Ask: Now this one: NOV0718-SMCC-DM1 (antibody, human IgG1, lambda, V domains shown, SMCC-DM1 on primary amines, sites not stated) VH: QVQLVESGGGLVKPGGSLRLSCAASGFTFNSYALHWVRQAPGKGLEWVGRIKSKTNGGTTDYAAPVKGRFTISRDDSKNTLYLQMNSLKTEDTAVYYCARVDATYSYSGYYYPMDYWGQGTLVTVSS VL: DIELTQPPSVSVSPGQTASITCSGDKIPTYTVHWYQQKPGQAPVLVIYDDNKRPSGIPERFSGSNSGNTATLTISGTQAEDEADYYCQSTASGTVVFGGGTKLTVLG
Reply: -3.8%

Ask: Now this one: NOV0691-SMCC-DM1 (antibody, human IgG1, lambda, V domains shown, SMCC-DM1 on primary amines, sites not stated) VH: QVQLVESGGGLVKPGGSLRLSCAASGFTFSSYALNWVRQAPGKGLEWVGRIKSKTYGGSTDYAAPVKGRFTISRDDSKNTLYLQMNSLKTEDTAVYYCARDRGGYVGFDSWGQGTLVTVSS VL: DIALTQPASVSGSPGQSITISCTGTSSDVGRYNFVSWYQQHPGKAPKLMIYRVSNRPSGVSNRFSGSKSGNTASLTISGLQAEDEADYYCQSWTTYSNVVFGGGTKLTVLG
Reply: -1.5%

Here is the next item to consider.
Ask: Could you tell me which percent inhibition at 1.22 nM ADC, OVCAR3 cells is on file for NOV0670-SMCC-DM1 (antibody, human IgG1, lambda, V domains shown, SMCC-DM1 on primary amines, sites not stated) VH: QVQLVQSGAEVKKPGSSVKVSCKASGGTFSSYAISWVRQAPGQGLEWMGGIIPIFGTANYAQKFQGRVTITADESTSTAYMELSSLRSEDTAVYYCARKFPGRGPFAYWGQGTLVTVSS VL: DIVLTQPPSVSGAPGQRVTISCSGSSSNIGSQYVYWYQQLPGTAPKLLIYYNSERPSGMPDRFSGSKSGTSASLAITGLQAEDEADYYCQTWDASSQSFVFGGGTKLTVLG ?
Reply: -30%
